# System: HCV replicon
# MEASUREMENT_NOTES: microbe, parasite or virus in culture
# Format: cell-based
# CONDITION_SUMMARY: Replicon IC50 values are determined by firefly luciferase signal; bicistronic replicon, 2 days; read-out: Replicon IC5Os
Below, each of the compounds is paired with its reported IC50 value.

Worked cases, IC50 given:
CCn1c(-c2cccc(NS(=O)(=O)CCCCl)c2)c(C#N)c2cc(Cl)ccc21 :: > 2000 nM
COc1ccc2c(C#N)c(C#Cc3ccc(N)cc3)[nH]c2c1 :: > 2000 nM
CCn1c(-c2ccc(NS(=O)(=O)CCN3CCSCC3)cc2)c(C#N)c2ccc(OC)cc21 :: > 2000 nM

`CCn1cc(C#N)c2ccc(C(F)(F)F)cc21` yielded IC50 of > 2000 nM

`CCS(=O)(=O)N(C)c1ccc(-c2c(C#N)c3ccc(OC)cc3n2C)cc1` yielded IC50 of 500 to 2000 nM

`CCS(=O)(=O)Nc1ccc(-c2c(C#N)c3ccc(OC(F)F)cc3n2C(C)C)cc1` yielded IC50 of < 500 nM

`CCn1c(C#Cc2cccc(N3CCNC3=O)c2)c(C#N)c2ccc(OC)cc21` yielded IC50 of 500 to 2000 nM

`CCn1c(-c2cccc(NC(=O)CCl)c2)c(C#N)c2ccc(C(F)(F)F)cc21` yielded IC50 of 500 to 2000 nM
